- TARGET_OF_ASSAY: CYP2C9 (Homo sapiens)
- Construct: purchased Promega; host or cells: baculovirus-infected insect cells
- Sequence (P11712 whole entry): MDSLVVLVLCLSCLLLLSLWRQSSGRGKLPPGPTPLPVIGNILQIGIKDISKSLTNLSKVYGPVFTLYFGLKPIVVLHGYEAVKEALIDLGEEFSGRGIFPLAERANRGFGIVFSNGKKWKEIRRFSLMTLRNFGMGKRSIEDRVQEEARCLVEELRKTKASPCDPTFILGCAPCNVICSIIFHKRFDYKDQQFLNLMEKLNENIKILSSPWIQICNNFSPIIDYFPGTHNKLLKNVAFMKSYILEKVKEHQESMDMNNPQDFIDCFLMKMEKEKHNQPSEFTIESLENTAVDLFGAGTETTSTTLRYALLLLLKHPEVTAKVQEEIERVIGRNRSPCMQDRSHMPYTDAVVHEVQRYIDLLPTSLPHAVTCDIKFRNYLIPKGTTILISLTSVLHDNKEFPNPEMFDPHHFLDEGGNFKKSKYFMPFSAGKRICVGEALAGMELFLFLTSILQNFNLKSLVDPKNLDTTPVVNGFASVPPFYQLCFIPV
- PROTOCOL_NOTES: Cytochrome P450 assay (P450-Glo), isoform 2C9
- Type: in vitro ADME
- PROTOCOL_CONDITIONS: human; at 10 µM compound concentration; read-out: CYP 2C9 % residual activity
MEASUREMENT_TYPE: activity at 10 µM (%)
# value in %; strip the unit string

# input Name the recorded activity at 10 µM for Nc1nc2ccc(C(=O)N(CCc3ccc(Cl)c(Cl)c3)c3ccccc3)cc2s1 .
# output 35.3

----------
IC50: recorded values
Target sequence: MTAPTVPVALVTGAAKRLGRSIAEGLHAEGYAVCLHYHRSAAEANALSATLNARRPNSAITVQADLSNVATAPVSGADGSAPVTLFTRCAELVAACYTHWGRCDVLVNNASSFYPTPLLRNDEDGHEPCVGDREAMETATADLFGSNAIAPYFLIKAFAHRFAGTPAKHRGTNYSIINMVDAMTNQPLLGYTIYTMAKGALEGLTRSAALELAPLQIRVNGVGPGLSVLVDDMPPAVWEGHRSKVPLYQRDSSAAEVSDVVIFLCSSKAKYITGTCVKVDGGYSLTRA
# value in µM; strip the unit string

COMPOUND	RESULT_VALUE
Nc1nc2ccc(C(=O)NCCc3cccc(Cl)c3)cc2s1 [Compound 2b]	91.4

Here is another compound to look at.
# input Name the recorded IC50 for Nc1nc2ccc(C(=O)NCCc3ccc(Br)cc3)cc2s1 [Compound 2e] .
# output 78.8
